Test system: MCF7 breast
Assay: NCI tumour cell line growth inhibition, 48 h
Where a SMILES comes first, the peptide text is derived from it. The star is where a group is joined. Palmitoyl = CCCCCCCCCCCCCCCC(=O)*
QUANTITY: TGI

Sample `C(=N/N(Cc1ccccc1)Cc1ccccc1)/c1ccccc1` — what was its TGI? > 100 µM

Query (compound): CC1(C)CNCC(C)(OCc2ccccc2)C(=O)NC(C)(C)CNCC(C)(OCc2ccccc2)C(=O)N1 (configuration not stated) ; field requested: TGI > 10 µM

Recorded TGI of `CCOC(=O)c1c(C)n(-c2ccc(Cl)cc2)c2c1cc(O)c1[nH]c3c(c12)CCCC3` , please. > 100 µM

Item CCCCCCCCCCCCCCCC(=O)N1CCCC1C(=O)NCC(=O)NC(Cc1ccccc1)C(=O)NC(C)C(=O)NC(CO)C(=O)NC(Cc1ccc(O)cc1)C(=O)NC(CCCCN)C(=O)NC(CC(C)C)C(=O)NC(CCCN=C(N)N)C(=O)N1CCCC1C(=O)NCC(N)=O (configuration not stated) (Palmitoyl-PGFASYKLRPG-NH2; configuration not given here) has what recorded TGI? 42.8 µM

# get_value(readout='TGI', item= `Oc1ccc(C(c2ccc(O)cc2)c2ccc(Br)cn2)cc1` ) 0.732 µM

Suppose we examine the compound `Cc1cc(N(CCC#N)CCC#N)ccc1/C(N=Nc1cccc(Cl)c1)=N/NC(=O)c1cc(Cl)ccc1O` ; what TGI value has been reported? > 100 µM

Value lookup for TGI; key = `Nc1nc(O)c2ncn([C@H]3CC[C@@H](CO)O3)c2n1` > 100 µM

---

System: RPMI-8226 leukemia
Assay: NCI tumour cell line growth inhibition, 48 h
QUANTITY: TGI

Reported TGI, compound `C/C(=C\c1cnc(C)s1)[C@@H]1C[C@@H]2O[C@@H]2CCC[C@H](C)[C@H](O)[C@@H](C)C(=O)C(C)(C)[C@@H](O)CC(=O)O1` : ____ > 100 µM

Given the entry `COC(=O)/C=C(\CC(=O)OC)n1nnnc1[C@@H]1C[C@H](COC(c2ccccc2)(c2ccccc2)c2ccccc2)[C@H]2OC(C)(C)O[C@H]21` , report its measured TGI. > 100 µM

Fill blank: measured TGI of the compound CC(C)C(C(=O)O)N1C(=O)c2ccccc2C1=O (centres undefined) is ____. > 100 µM

Look up TGI: `CCOC(=O)C1(F)S(=O)(=O)OCCOS1(=O)=O` > 100 µM

Given the entry `Oc1cccc2ccc(N/N=C/c3cc(CN4CCOCC4)c(O)c4ncccc34)nc12` , report its measured TGI. 10.5 µM

What value of TGI has been recorded for this entry: `Cn1cc(C2=C(c3cccc(OC[C@@H](O)CO)c3)C(=O)NC2=O)c2ccccc21` > 25 µM

Which TGI value belongs to `CC(=O)OCCOCNC(=S)N/N=C/c1cc(Br)cs1` ? > 100 µM

Entry under review: `CSc1nc2sc3c(c2c(=O)n1-c1ccc(C(C)C)cc1)CCC(=O)C3` . Reported TGI? 5.07 µM

What value of TGI has been reported for the following compound? `CC1=NN(c2nc(N)nc(/C(C#N)=C\c3csc([N+](=O)[O-])c3)n2)C(C)(C)C1` > 100 µM

---

Tested on: M14 melanoma
Test: NCI tumour cell line growth inhibition, 48 h; in the data active means GI50 below about 0.43 µM; inactive means the rest
Return exactly one item of y (active), n (inactive)

Recorded test outcome, item `CC(C)(O)CNc1nc(Nc2ccnc(C(F)(F)F)c2)nc(-c2cccc(C(F)(F)F)n2)n1` n

Recorded test outcome, item `N#CCN1CCn2c1nsc2=S` n

Hi, sorry to bother you, what did the test record for `COC(=O)CCCCC(=O)c1c(C)[nH]c(/C=C2\N=C(c3ccc[nH]3)C=C2OC)c1C` ? y

How did this test come out for `Cc1cc(N(CCCNc2ccnc3cc(Cl)ccc23)Cc2ccco2)nc(N2CCN(C)CC2)n1` ? n

Hi, sorry to bother you, what did the test record for `C[CH2][Sn]([CH2]C)([O]C(=O)c1ccccc1OC)[O][Sn]([CH2]C)([CH2]C)[O]C(=O)c1ccccc1OC` ? n

So what was the verdict on `Oc1cccc2ccc(N/N=C/c3cc(CN4CCOCC4)c(O)c4ncccc34)nc12` in this test? y

Please indicate how the test categorized `COc1cc(/C=C/C(=O)c2cccc(-n3cc(-c4ccc(Cl)cc4)[nH]c3=O)c2)cc(OC)c1OC` . n

Write down the call the test reported for this molecule. Item: `C[C@]12CC[C@@H]3c4cc(OC(F)F)c(OS(N)(=O)=O)cc4CC[C@H]3[C@@H]1CC[C@@H]2O` y

Field: outcome | Entry: CC1OC(OC2C(O)CC(OC3C(O)CC(OC4CCC5(C)C(CCC6C5CC(O)C5(C)C(C7=CC(=O)OC7)CCC65O)C4)OC3C)OC2C)CC(O)C1O (stereo unspecified) y

What was the test verdict on `COc1cc2c(cc1OC)-c1ncc3c(OC)c(OC)c(OC)cc3c1C2` ? n

Please indicate how the test categorized N#CC1=C(/N=C/c2ccccc2)Oc2c(ccc3ccccc23)C1c1ccccc1 (stereo unspecified) . n
